Target: T1, UNK ZnF1-3 (human, UniProt Q9C0B0 31-174)
T1 sequence: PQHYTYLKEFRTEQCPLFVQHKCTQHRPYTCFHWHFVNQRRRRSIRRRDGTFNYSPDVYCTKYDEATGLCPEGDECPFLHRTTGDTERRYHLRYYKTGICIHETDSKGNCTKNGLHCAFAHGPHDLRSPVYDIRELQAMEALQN
Assay: nsRBNS (natural sequence RNA bind-n-seq); RBNS binding buffer (assumed for nsRBNS): 25 mM Tris pH 7.5, 150 mM KCl, 3 mM MgCl2, 0.01% Triton X-100, 500 ug/ml BSA, 20 U/ml SUPERase-In, 4 C; UNK is unkempt and MSI1 is Musashi-1; names of the RNAs are library labels; protein concentration not given here; high values mean tight binding
The full ranking holds about 24,000 sequences; the median of “enrichment r” is about 0.99, and the highest 2% start at about 3.7. What follows is part of a selection rich in the highest values, with near analogues and random picks from the rest.
Use 1 enrichment R as the dividing line for binding signal, with the line itself on the true side and lower values as false.

// inclusive: binding signal at least 1 enrichment R? input: 117841126_117842589_621_3pUTR_ENSMUSG00000033326_ENSMUST00000106406|mouse|control|control (ssRNA) RNA: GGGAGUUCUACAGUCCGACGAUCCUUCUCCACCAGGUCCAGGAUGGUCUUCAGCCGGCCGAUAUUCCACUCAUCAACGUGCUGUUCAUAGAGAGUACCAUUCACGUCUGCUCCAUAGAUGGGAGGAUUGAAUGUGAGGUUUUUCAACAGAGGAUUGAGCAUCA
true

Given chr8:80553714:80553715:+_ENSG00000104435_ENST00000220876|hu_mus|FALSE|FALSE (ssRNA) RNA: GGGAGUUCUACAGUCCGACGAUCAGCCUCCAGCUUUUUCUGAAUCUCCUCCAGAGACAGGUCUUUCUUCUUUGGAGAAGCUAGAGUUCGUGGAGCUUCUGAGAUGGGAGAUGGUGGCUUCAAGAUCAGCUCAAAAGCCUGGCCCAACAGAGGAUUGAGCAUCA , state whether its binding signal is at least 1 enrichment R.
false

Hi, just wondering whether chr3:32586495:32586496:-_ENSG00000144635_ENST00000273130|hu_hu|FALSE|FALSE (ssRNA) RNA: GGGAGUUCUACAGUCCGACGAUCUUUCUGUAAAGAAUCCAAAGCAGUCCAAGGCUUUGACAUGUCAACAACCAGCAUAACUAGAGUAUCCUUCAGAGAUACGGCAUCCAGUGAAAAUUUAAGGAGGCCUUUGUGAUAUAGGUCCAACAGAGGAUUGAGCAUCA shows binding signal of 1 enrichment R or higher.
true

Quick check, binding signal >= 1 enrichment R? chr2:39006174:39006175:+_ENSG00000152147_ENST00000409566|hu_mus|FALSE|FALSE (ssRNA) RNA: GGGAGUUCUACAGUCCGACGAUCUACUCCUUCUCACAGGCUAUCACUCUCACUUCUUUAUAAACGUAAUCUUCCCAUUCUAAGGGGCUUUUCUUCAUCCAUUCGCUCAUGGUUACCAGUUGCCCAGAUUCUUUCUAGAUGACUCAACAGAGGAUUGAGCAUCA
false

Is reported binding signal greater than or equal to 1 enrichment R here: chr1:78194255:78194256:-_ENSG00000077254_ENST00000357428|hu_mus|motif|central (ssRNA) RNA: GGGAGUUCUACAGUCCGACGAUCAUUGCUGUCCUCAGGAAAGCCUUUGGAGCCACUCUCAUUUUCUGCUUUCUCGCUGCUGCGGCAAGACUCGCACGACUGAAAAUCCACAUCUGACUGGCUCUUCUCUUCCUCCACCGUCUCCAACAGAGGAUUGAGCAUCA
false

Hi team, for chr13:100193591:100193592:-_ENSMUSG00000052727_ENSMUST00000064762|mus_mus|FALSE|FALSE (ssRNA) RNA: GGGAGUUCUACAGUCCGACGAUCUUAAACCCUCAGAGUAAAAGAGCAGUGCGAAACAUACGCUUUACAGACGAAAAUAAACUAAAAUGUAAAUUUUGAAAUAAAUAACUAACAUAGAAAAUAAAAUGAGGUCAUUGUUCACUACAACAGAGGAUUGAGCAUCA , is the recorded binding signal at or above 1 enrichment R?
true

// inclusive: binding signal at least 1 enrichment R? input: chr13:100193591:100193592:-_ENSMUSG00000052727_ENSMUST00000064762|mus_mus|motif|central (ssRNA) RNA: GGGAGUUCUACAGUCCGACGAUCUUAAACCCUCAGAGUAAAAGAGCAGUGCGAAACAUACGCUUUACAGACGAAAAUAAACGGAAAUGUAAAUUUUGAAAUAAAUAACUAACAUAGAAAAUAAAAUGAGGUCAUUGUUCACUACAACAGAGGAUUGAGCAUCA
true

Can chr12:16048344:16048345:+_ENSG00000023734_ENST00000419869|hu_hu|hu_hu_hu_mus_True|38_68 (ssRNA) RNA: GGGAGUUCUACAGUCCGACGAUCAGAUCGUCCAUAAGUAAUAACCAAAAUCUCUCCUUCAGGAAUAUAUUCCAUACUGCUAACAGACAUAUUAAAAUUUAGAGAUUUCACUUCUGUCAUUGUGGCAUGAUCCCAGAGCCGAACCAACAGAGGAUUGAGCAUCA be said to have binding signal at or above 1 enrichment R?
true

Textbook exercise: given the entry chr2:153237265:153237266:-_ENSMUSG00000061411_ENSMUST00000109784|mus_mus|mus_mus_mus_hu_False|1_8 (ssRNA) RNA: GGGAGUUCUACAGUCCGACGAUCAAAAAAAAAAAAAAAAAAGUGUCCUUGUGCCCAAAGUCUCAGGUGCUUGGAGUGUGGCUAGAAACAGCUCUUUUGGAUCCCACCUCUUUCAAAAACAAAAUGUCCAACUGGUGAGGCAGGCAACAGAGGAUUGAGCAUCA , state whether its binding signal is greater than or equal to 1 enrichment R.
true

Does chr2:153237265:153237266:-_ENSMUSG00000061411_ENSMUST00000109784|mus_mus|mus_mus_mus_hu_False|8_58 (ssRNA) RNA: GGGAGUUCUACAGUCCGACGAUCAAAAAAAAAAAAAAAAAAGUGUCCUUGUGCCCAAAGUCUCAGGUGCUUGGAGUGCAGCUAGAAACAGCUCUUUUGGAUCCCACCUCUUUCAAAAACAAAAUGUCCAACUGGUGGAGGCAGCAACAGAGGAUUGAGCAUCA have a reported binding signal of at least 1 enrichment R?
true

Say whether chr13:100200628:100200629:-_ENSMUSG00000052727_ENSMUST00000064762|perfect_dup|FALSE|FALSE (ssRNA) RNA: GGGAGUUCUACAGUCCGACGAUCGUCACCAGGUGUCUUCCCUCCACUGUCCUUCUCCAGGCCAGGUGUGGACAAAUCUCUAUUCAAGGCUAGAUGGUGUUGCAUUGUAUCGAAUAACACUGAGGCACGGAAGCCAUAGGGCUCCAACAGAGGAUUGAGCAUCA shows binding signal of 1 enrichment R or more.
true
